- measurement-description: thallium flux activation in parental CHO cells, counter-screen for KCNQ1 potentiator project (AID 493006);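 as to activation: fluorescence ratio of max minus min over baseline after K+ and Tl+ depolarization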
- condition-info: parental CHO-K1 cells, FluxOR thallium flux, at 10 µM; active compounds read high
Activity calls are given as the source filed them.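 The calls were made as follows: active = duplicate-averaged activation above buffer control mean plus 5 SD of those controls; inactive = the rest.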
recorded-endpoint: activation

Reference set (5 entries):
[[record]]
compound = "CCC1(CC)Cc2ccccc2-c2[nH]c(=S)[nH]c(=O)c21"
reported_value = "inactive"

[[record]]
compound = "COc1ccc(C(=O)/C=C/C(=O)N(CC(=O)NC2CCCCC2)Cc2cccs2)c(O)c1"
reported_value = "inactive"

[[record]]
compound = "CCOC(=O)c1c(NC(=S)NCC2CCCO2)sc(C)c1C (centres undefined)"
reported_value = "inactive"

[[record]]
compound = "Cc1cc(C(=O)NN)n[nH]1"
reported_value = "inactive"

[[record]]
compound = "Cc1ccc(NC(=S)NC(=O)c2cncc(Br)c2)cc1Cl"
reported_value = "323% (active)"


Look at this compound and give its reported activation. "O=C(CNc1ccc(Br)cc1)NNC1=NCCC1" inactive

Look at this compound and give its reported activation. "CCc1ccc(NC(=O)C2CCN(C(=O)[C@@H]3Cc4ccccc4CN3)CC2)cc1" inactive

Look at this compound and give its reported activation. "COc1ccc(O)c(C(=O)c2cnn(-c3ccc(Cl)cc3)c2)c1" inactive

Look at this compound and give its reported activation. "Cc1ccc2sc(N(CCCN(C)C)C(=O)CCS(=O)(=O)c3ccccc3)nc2c1C" inactive

Look at this compound and give its reported activation. "CCOC(=O)CSC(=S)NC(=O)c1ccc(OC)cc1" inactive

Look at this compound and give its reported activation. "COc1cccc(C(=O)Nc2nc(-c3ccccc3)c(-c3ccccc3)o2)c1" 145% (active)

Reference source for all entries: PubChem BioAssay
